Reported MFI at 0.6 nM mAb values for a set of binders
- Assayed System: T1, Cyno CD33 full length, expressed on HEK293F cells (cynomolgus monkey)
- T1 construct: HEK293F cells transduced with lentivirus containing full length cyno CD33 (Genbank XP_005590138.1); also called cyCD33
- Experiment: flow cytometry, HEK293F cells expressing cyno CD33
Write the number in MFI without appending the unit.

Below: 3 binders and their reported MFI at 0.6 nM mAb.
>  <Binder>
C33B72 (antibody, IgG1, V domains shown, huIgG1 F405L; also called C33F77; C33H65/C33L47) VH: QVQLVESGGGVVQPGRSLRLSCAASGFTFSSYGMHWVRQAPGKGLEWVVVISYDGSNKYYADSVKGRFTISRDNSKNTLYLQMNSLRAEDTAVYYCAKDFRDFDWLPPDSTSYHGMDVWGQGTTVTVSS VL: SYELTQPPSVSVSPGQTASITCSGDKLGDKYACWYQQKPGQSPVVVIYQDRKRPSGIPERFSGSNFGNTATLTISGTQAMDEADYYCQAWDSSTVVFGGGTKLTVL

>  <MFI at 0.6 nM mAb (MFI)>
3890

$$$$
>  <Binder>
C33B48 (antibody, IgG1, V domains shown, huIgG1 F405L; also called C33F53; C33H80/C33L73) VH: QVQLVQSGSELRKPGASVKVSCKASGYTFTNYAMNWVRQAPGQGLEWMGWINTNTGNPTYAQGFTGRFVFSLDTSVSSAYLQISSLKAEDTAMYYCATDRDRGTDYWGQGTLVTVSS VL: QSALTQPASVSGSPGQSITISCTGTSSDVGDYNYVSWYQQHPGKVPKLMIYDVSNRPSGVSNRFSGSMSGNTASLTISGLQAEDEADYYCSSYSSSSALEVFGGGTKLTVL

>  <MFI at 0.6 nM mAb (MFI)>
43400

$$$$
>  <Binder>
C33B125 (antibody, IgG1, V domains shown, huIgG1 F405L; also called C33F130; C33H84/C33L66) VH: QVQLVESGGGVVQPGRSLRLSCAASGFTFSSYGMHWVRQAPGKGLEWVAVISYDGSNKYYADSVKGRFTISRDNSKNTLYLQMNSLRAEDTAVYYCAKDFRSFDWLPPDSTSYYGMDVWGQGTTVTVSS VL: SYELTQPPSVSVSPGQTASITCSGDKLGDKYVCWYQQKPGQSPVVVIHQDRKRPSGIPERFSGSNFGNTATLTISGTQAMDEADYYCQAWDSSTVVFGGGTKLTVL

>  <MFI at 0.6 nM mAb (MFI)>
3460

$$$$

Then this binder:
**Query** State its MFI at 0.6 nM mAb for this binder: C33B124 (antibody, IgG1, V domains shown, huIgG1 F405L; also called C33F129; C33H73/C33L32) VH: EVQLLESGGGLVQPGGSLRLSCAASRFTFSSYAMTWVRQAPGKGLEWVSTINISGGSTYYADSVKGRFTISRDNSKNTLYLQMNSLRAEDTAVYYCTKGGYSSGPFDYWGQGTLVSVSS VL: SYELTQPPSVSVSPGQTASITCSGDKLGDKYVRWYQQKTGQSPVLVMYQDSKRPSGIRERFYGSNSGNTATPTISGTQAVDEAEYYCQAWDSSTGVVFGGGTKLTVL
**Result** 77.3
